# system-tested: UniProt P06276
# Sequence (P06276 29-602): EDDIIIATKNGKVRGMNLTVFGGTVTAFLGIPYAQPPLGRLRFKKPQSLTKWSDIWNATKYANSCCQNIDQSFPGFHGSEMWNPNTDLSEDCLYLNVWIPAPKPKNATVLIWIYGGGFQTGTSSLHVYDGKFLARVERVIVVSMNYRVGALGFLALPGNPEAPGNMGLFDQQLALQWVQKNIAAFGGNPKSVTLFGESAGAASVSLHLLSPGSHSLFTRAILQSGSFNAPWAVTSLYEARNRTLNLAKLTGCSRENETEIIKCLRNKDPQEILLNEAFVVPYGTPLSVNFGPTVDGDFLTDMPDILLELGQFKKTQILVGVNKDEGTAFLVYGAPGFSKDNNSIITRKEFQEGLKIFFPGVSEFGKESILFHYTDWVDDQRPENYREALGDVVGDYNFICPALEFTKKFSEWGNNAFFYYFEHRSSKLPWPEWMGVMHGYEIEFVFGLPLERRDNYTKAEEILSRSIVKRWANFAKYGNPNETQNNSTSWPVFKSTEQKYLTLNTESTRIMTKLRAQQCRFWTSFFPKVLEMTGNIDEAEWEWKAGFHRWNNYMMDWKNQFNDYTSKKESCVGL
# measurement-protocol: biochemical
# Type: biochemical
# assay-conditions: read-out: hBChE IC50; Table 4; IC50 ± SEM
readout-label: IC50
A complete answer gives the number followed by the unit.

QUERY: Name the recorded IC50 for Oc1ccc2[nH]cc(CCCCN3CC=C(c4ccccc4)CC3)c2c1 .
RESULT: 78.8 nM

###

# system-tested: hMAO-B (Homo sapiens)
# Construct: purchased Sigma Aldrich; host or cells: BTI-TN-5B1-4 baculovirus-infected insect cells
# Sequence (P27338 1-520): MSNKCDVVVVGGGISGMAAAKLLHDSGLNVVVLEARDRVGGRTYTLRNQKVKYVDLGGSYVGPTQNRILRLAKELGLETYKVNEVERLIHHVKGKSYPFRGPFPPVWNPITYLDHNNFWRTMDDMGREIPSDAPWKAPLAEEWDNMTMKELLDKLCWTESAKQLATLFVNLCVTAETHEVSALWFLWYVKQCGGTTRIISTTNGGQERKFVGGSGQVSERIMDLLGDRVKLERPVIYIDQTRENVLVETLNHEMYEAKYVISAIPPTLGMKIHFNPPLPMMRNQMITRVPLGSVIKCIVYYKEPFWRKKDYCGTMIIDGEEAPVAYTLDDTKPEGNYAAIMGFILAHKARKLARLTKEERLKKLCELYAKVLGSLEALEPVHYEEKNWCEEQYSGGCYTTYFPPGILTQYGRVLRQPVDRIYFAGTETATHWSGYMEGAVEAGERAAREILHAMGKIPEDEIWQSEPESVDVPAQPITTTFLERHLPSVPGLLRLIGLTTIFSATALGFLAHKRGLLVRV
# measurement-protocol: biochemical
# assay-conditions: residual activity at 10 µM; Table S3
readout-label: hMAO-B RA [%]
A complete answer gives the number followed by the unit.

QUERY: Write down the reported hMAO-B RA [%] of O=C(OC[C@H]1CCCN1c1ccnc2ncnn12)c1ccc(Oc2ccccc2)nc1 , test system: hMAO-B (Homo sapiens).
RESULT: 17%

QUERY: Write down the reported hMAO-B RA [%] of CC(=O)N1CCc2cccc(OCC3CCCN3c3ccnc4ncnn34)c2C1 (centres unmarked) , test system: hMAO-B (Homo sapiens).
RESULT: 98%

QUERY: Write down the reported hMAO-B RA [%] of O=C(OCC1CCCN1c1ccnc2ncnn12)c1cccc(OC(F)(F)F)c1 (centres unmarked) , test system: hMAO-B (Homo sapiens).
RESULT: 81%

QUERY: Write down the reported hMAO-B RA [%] of c1cc(OCC2CCCN2c2ccnc3ncnn23)c2ccncc2c1 (centres unmarked) , test system: hMAO-B (Homo sapiens).
RESULT: 88%

QUERY: Write down the reported hMAO-B RA [%] of O=C(OCC1CCCN1c1ccnc2ncnn12)c1cccc(CCl)c1 (centres unmarked) , test system: hMAO-B (Homo sapiens).
RESULT: 93%

QUERY: Write down the reported hMAO-B RA [%] of O=C(NCCc1ccc(Cl)cc1)c1cc(OCC2CCCN2c2ccnc3ncnn23)c2ccccc2n1 (centres unmarked) , test system: hMAO-B (Homo sapiens).
RESULT: 104%

QUERY: Write down the reported hMAO-B RA [%] of N#Cc1cccc(C(=O)OCC2CCCN2c2ccnc3ncnn23)c1 (centres unmarked) , test system: hMAO-B (Homo sapiens).
RESULT: 91%

QUERY: Write down the reported hMAO-B RA [%] of c1cc(OCC2CCCN2c2ccnc3ncnn23)c2cccnc2c1 (centres unmarked) , test system: hMAO-B (Homo sapiens).
RESULT: 99%

QUERY: Write down the reported hMAO-B RA [%] of O=C(OCC1CCCN1c1ccnc2ncnn12)c1ccccc1I (centres unmarked) , test system: hMAO-B (Homo sapiens).
RESULT: 93%

QUERY: Write down the reported hMAO-B RA [%] of FC(F)(F)c1ccc2nccc(OCC3CCCN3c3ccnc4ncnn34)c2c1 (centres unmarked) , test system: hMAO-B (Homo sapiens).
RESULT: 75%

QUERY: Write down the reported hMAO-B RA [%] of CCOc1cccc(C(=O)OCC2CCCN2c2ccnc3ncnn23)c1 (centres unmarked) , test system: hMAO-B (Homo sapiens).
RESULT: 88%
